Could you please report measured growth inhibition for the items listed next?
Assay: NCI Yeast Anticancer Drug Screen. Data for the cln2 rad14 strain (AID 165);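 also: 0% = growth equal to vehicle treated cultures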
Details: S. cerevisiae cln2 rad14 strain, at 50.0 µM, active compounds read high
This is part of a sample that, as a whole, favours compounds with a hit. Of some 79,000 tested, about 15% had one in any assay.
Numbers only; they are read as %.

Give the measured growth inhibition of Cn1nc(N)c2cccnc21 .
45.1

Try the molecule CCN1CCC(O)(/C=C/c2cccc(C)c2)C(C(=O)/C=C/c2cccc(C)c2)C1 (configuration not stated)
90.2

What do we get for Cc1cc(C(=O)O)c(C)cc1SSc1cc(C)c(C(=O)O)cc1C ?
3.7

Moving on to CC1(C)CC(=O)C(C=NC(=S)c2ccccc2)=C(O)C1
-0.6

How about this molecule: CC(C)c1cc(O)c2c(c1O)C1CC3C(C)(C)CCC[C@]23C(=O)O1 (some centres not stated)
88.2

Could you do the same for C=CS(=O)(=O)c1ccc2ccccc2c1 , please?
98.7

Request: CCOC(=O)C(Cc1ccc(O)c(C=O)c1)NC(C)=O (configuration not stated)
-8.75

----------
Experiment: NCI Yeast Anticancer Drug Screen. Data for the cln2 rad14 strain (AID 165);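 also: 0% = growth equal to vehicle treated cultures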
Conditions: S. cerevisiae cln2 rad14 strain, at 5.0 µM (retest, dose inferred, filed as 0.5), active compounds read high
The panel holds about 79,000 compounds, 15% with a hit somewhere; the sample as a whole holds those more often.
Parameter: growth inhibition (%)
Give a bare numeral; the unit % is implied.

Looking for the measured growth inhibition of CCc1cc(C)cc(NC(=O)OC2CCCCC2C)c1 (stereo unspecified) , can you help?
20

Likewise for O=C(Nc1nc2ccc([N+](=O)[O-])cc2s1)C(=O)C(C1OC(=O)c2ccccc21)[N+](=O)[O-] (stereo unspecified) ?
13

And then c1ccc(-n2ncc3ccc4cccn4c32)cc1 , what is it?
-13

Now consider CCCCCCC(=O)CCCCCC/C=C\CC1OC(=O)C(N)(CO)C1O (stereo unspecified) .
55

Check Nc1ccc2nnnn2c1 too.
3

Also check Nc1nc(N)c(-c2cccc(C(F)(F)F)c2)c(Cc2cccc(C(F)(F)F)c2)n1
24

----------
Assay: NCI Yeast Anticancer Drug Screen. Data for the bub3 strain (AID 167)
Conditions: S. cerevisiae bub3 mutant strain, at 5.0 µM (retest, dose inferred, filed as 0.5), active compounds read high
Compounds without any hit were thinned out: in the full panel of roughly 79,000, 15% have a hit.
Parameter: growth inhibition (%)
All answers are understood in %, so give the number only.

# input compound: CC(C)OC(=O)CCCCCC1CCCCC1 ; wanted: its growth inhibition
8

For COC(=O)c1c2c(cc3c1CC1(Cc4cc5c(c(C)c4C1)CCC5)C3)CCC2 (stereo not drawn) then?
14

Do the same for NNC(=O)c1ccc(N)cc1O please
-1

Same lookup for CCCCCC/C=C\C=O , please.
-2

One more compound: Cc1nn(-c2ccc(Cl)cc2)c2nc(N)nc(N)c12
-1

Now the same for c1ccc(Cn2nnnc2-c2ccccc2)cc1
-70

Lookup COc1ccc(CSC(=S)Nc2ccc(Cl)c(C(F)(F)F)c2)cc1
47

Can you handle COC(=O)C1=C(C)NC(C)=C([N+](=O)[O-])C1c1cccc(N=O)c1 (stereo not drawn) next?
26

Item: COC1=C(/C(=N/Nc2ccc([N+](=O)[O-])cc2[N+](=O)[O-])c2ccccc2)COC1=O
3

Lookup OC(CBr)C[n+]1cccc2cc(Cl)ccc21 (stereo not drawn)
-1

Another compound: O=C(c1ccc(Oc2ccccc2)cc1)C(C(c1ccccc1)N1CCOCC1)N1CCOCC1 (stereo not drawn)
0

What do you have for O=C(OC12CCCCC1CCCC2)c1ccc([N+](=O)[O-])cc1 (stereo not drawn) ?
33

// same read-out, input: Oc1c(Cl)cc(Cl)c(Cc2c(Cl)cc(Cl)c(O)c2Cl)c1Cl
97

Then what about the compound CCc1cc(-c2ccco2)c(C#N)c(=S)n1C1OC(COC(C)=O)C(OC(C)=O)C(OC(C)=O)C1OC(C)=O (stereo not drawn) ?
7

Note, next up: ClC(Cl)=C1C(=C(Cl)Cl)C(Cl)(Cl)C1(Cl)Cl
56

Similarly, c1cc2cc(Cc3ccc4[nH]ccc4c3)ccc2[nH]1 ?
12

Another compound: Cc1cc(NCCCN(C)C)c2cc3ccc4cccc5ccc(c2n1)c3c45
-2

Then what about the compound CCOC(=O)/C(=C/O)c1c[nH]c2ccccc12 ?
0

Can you handle Oc1c(N2CCOCC2)cc(-c2cc(N3CCOCC3)c(O)c3ccccc23)c2ccccc12 next?
16

Entry to check: S=C(N/N=C/c1ccccn1)N1CCCCC1
98

Follow-up entry: COC1/C=C\OC2(C)Oc3c(C)c(O)c4c(c3C2=O)C2=NC(C)(C)N(c3ccccc3)C2=C(NC(=O)/C(C)=C\C=C\C(C)C(O)C(C)C(O)C(C)C(OC(C)=O)C1C)C4=O (stereo not drawn)
-7

How about this compound: O=C(CCBr)NC(=O)Oc1cccc2ccccc12
-8

Thanks! And O=C1C(=O)c2cc(Br)cc([N+](=O)[O-])c2-c2ccc(Br)cc21 ?
38

Moving on to CCN(CC)CCN(C)c1ccc(CO)c2c1C(=O)c1ccccc1S2=O (stereo not drawn)
2

Also NC(=O)CCSC(=S)N1CCOCC1 ?
39

Would you mind doing CC(C)(C)NC(=S)N/N=C/c1cc(Cl)cc(Cl)c1O as well?
97

Record: O=C1OCCN1/N=C/c1ccc([N+](=O)[O-])o1
7

Query COc1ccccc1C1c2cc3c(cc2OC(C)(O)C1C)OCO3 (stereo not drawn) next
0

Note, next up: CC(C)C1/C(=N/O)CC(c2ccccc2)N(N=O)C1c1ccccc1 (stereo not drawn)
4

Now this one: COC(=O)c1cccc2cccc(C(=O)Nc3ccc(C)cc3C)c12
76

Same question, CC1(C)NNC(=S)NN1 this time
23

Next record, please: COc1cc([C@@H]2c3cc4c(cc3[C@@H](OC3OC5CO[C@@H](c6cccs6)OC5C(O)C3O)[C@H]3COC(=O)[C@H]23)OCO4)cc(OC)c1O (stereo partly drawn)
-2

// query: CCCCCCCCCCCCCCSC(=NCC)NCC
99
